Reported values of CC50 at 72 h for individual entries
MEASUREMENT_PROTOCOL: Cytotoxicity assay (MTT), Vero cells
Format: cell-based, African green monkey
MEASUREMENT_SETUP: African green monkey, Vero cells (African green monkey kidney cells); Vero cells, 72 h, MTT; brackets = 95% confidence interval

{"columns": ["COMPOUND", "UNITS_SYMBOL", "RESULT_OPERATOR", "CC50 at 72 h"],
 "data": [
  ["Cc1ccc(C2CC(c3ccc(F)cc3)=NN2C(N)=O)cc1 (stereo not shown)", "µM", "=", 169],
  ["O=C(C1CCCCC1)N1CC(=O)N2CCc3ccccc3C2C1 (stereo not shown) [PZQ, praziquantel, reference compound]", "µM", ">", 200],
  ["CCCCCCCCCOc1ccc(C2CC(c3ccccc3)=NN2C(N)=O)cc1 (stereo not shown)", "µM", "=", 155],
  ["NC(=O)N1N=C(c2ccc(F)cc2)CC1c1ccc(Cl)cc1 (stereo not shown)", "µM", "=", 134],
  ["CN(C)c1ccc(C2CC(c3ccc(F)cc3)=NN2C(N)=O)cc1 (stereo not shown)", "µM", ">", 200],
  ["CCCCCCOc1ccc(C2CC(c3ccccc3)=NN2C(N)=S)cc1 (stereo not shown)", "µM", ">", 200],
  ["CCCCCCCCCCOc1ccc(C2CC(c3ccc(F)cc3)=NN2C(N)=O)cc1 (stereo not shown)", "µM", "=", 159]
]}

====

Reported values of Monkey cells SI (selectivity index) for individual entries
System: Vero cells
MEASUREMENT_PROTOCOL: Cytotoxicity assay (MTT), Vero cells
Format: cell-based, African green monkey
MEASUREMENT_SETUP: CC50 (Vero) divided by EC50 (S. mansoni)

{"columns": ["COMPOUND", "TARGET_DESC", "RESULT_OPERATOR", "Monkey cells SI (selectivity index)"],
 "data": [
  ["Cc1ccc(C2CC(c3ccc(F)cc3)=NN2C(N)=O)cc1 (stereo not drawn)", "Vero cells", "=", 9.7],
  ["CCCCCCCCCCOc1ccc(C2CC(c3ccc(F)cc3)=NN2C(N)=O)cc1 (stereo not drawn)", "Vero cells", "=", 10.9],
  ["CN(C)c1ccc(C2CC(c3ccc(F)cc3)=NN2C(N)=O)cc1 (stereo not drawn)", "Vero cells", ">", 10.1],
  ["CCCCCCOc1ccc(C2CC(c3ccccc3)=NN2C(N)=S)cc1 (stereo not drawn)", "Vero cells", ">", 7.1],
  ["NC(=O)N1N=C(c2ccc(F)cc2)CC1c1ccc(Cl)cc1 (stereo not drawn)", "Vero cells", "=", 21.6],
  ["CCCCCCCCCOc1ccc(C2CC(c3ccccc3)=NN2C(N)=O)cc1 (stereo not drawn)", "Vero cells", "=", 11.2]
]}

====

Reported values of melting point for individual entries

{"columns": ["COMPOUND", "melting point"],
 "data": [
  ["CCCCCCCCCCOc1ccc(C2CC(c3ccc(F)cc3)=NN2C(N)=S)cc1 (centres unmarked)", "105.5 to 108.4 °C"],
  ["CCCCCCCCCCCCOc1ccc(C2CC(c3ccccc3)=NN2C(N)=O)cc1 (centres unmarked)", "94.8 to 97.9 °C"],
  ["CCCCCCCCCCCCCCOc1ccc(C2CC(c3ccc(F)cc3)=NN2C(N)=S)cc1 (centres unmarked)", "92.2 to 94.6 °C"],
  ["CCCCCCCCCCOc1ccc(C2CC(c3ccccc3)=NN2C(N)=S)cc1 (centres unmarked)", "96.2 to 98.9 °C"],
  ["CCCCCCCCCCCCCCOc1ccc(C2CC(c3ccccc3)=NN2C(N)=S)cc1 (centres unmarked)", "97 to 99.2 °C"],
  ["CCCCCCCCCOc1ccc(C2CC(c3ccccc3)=NN2C(N)=S)cc1 (centres unmarked)", "86.4 to 88.2 °C"],
  ["CCCCCCCCOc1ccc(C2CC(c3ccccc3)=NN2C(N)=S)cc1 (centres unmarked)", "90.4 to 92.1 °C"],
  ["Fc1ccc(-c2cc(-c3ccc(Br)cc3)n[nH]2)cc1", "217 to 219 °C"],
  ["CCCCCCCCCOc1ccc(C2CC(c3ccc(F)cc3)=NN2C(N)=S)cc1 (centres unmarked)", "113 to 114 °C"],
  ["NC(=O)N1N=C(c2ccc(F)cc2)CC1c1ccc(Br)cc1 (centres unmarked)", "176 to 178 °C"],
  ["CCCCCCCCCCCCOc1ccc(C2CC(c3ccccc3)=NN2C(N)=S)cc1 (centres unmarked)", "94.2 °C"]
]}

====

System: S. mansoni adult worm
MEASUREMENT_PROTOCOL: In vitro antischistosomal assay (viability of ex vivo adult worms)
Type: cell-based, Schistosoma mansoni
MEASUREMENT_SETUP: ex vivo adult schistosomes, 72 h; brackets = 95% confidence interval
// NB: equality with 10 µM counts as Not met; only EC50 strictly below is Met

{"columns": ["COMPOUND", "QUALITATIVE_LABEL"],
 "data": [
  ["NC(=O)N1N=C(c2ccc(F)cc2)CC1c1ccc(Cl)cc1 (centres unmarked)", "Met"],
  ["CCCCCCCCCCOc1ccc(C2CC(c3ccc(F)cc3)=NN2C(N)=O)cc1 (centres unmarked)", "Not met"],
  ["Cc1ccc(C2CC(c3ccc(F)cc3)=NN2C(N)=O)cc1 (centres unmarked)", "Not met"],
  ["CCCCCCCCCOc1ccc(C2CC(c3ccccc3)=NN2C(N)=O)cc1 (centres unmarked)", "Not met"],
  ["CN(C)c1ccc(C2CC(c3ccc(F)cc3)=NN2C(N)=O)cc1 (centres unmarked)", "Not met"]
]}

====

MEASUREMENT_PROTOCOL: Cytotoxicity assay (MTT), SH-SY5Y cells
Format: cell-based, human
MEASUREMENT_SETUP: human, SH-SY5Y cells (human neuroblastoma); SH-SY5Y cells, 72 h, MTT

{"columns": ["MOLECULE", "CC50 at 72 h"],
 "data": [
  ["CN(C)c1ccc(C2CC(c3ccc(F)cc3)=NN2C(N)=O)cc1 (stereo not shown)", "> 200 µM"],
  ["Cc1ccc(C2CC(c3ccc(F)cc3)=NN2C(N)=O)cc1 (stereo not shown)", "> 200 µM"],
  ["CCCCCCOc1ccc(C2CC(c3ccccc3)=NN2C(N)=S)cc1 (stereo not shown)", "> 200 µM"],
  ["O=C(C1CCCCC1)N1CC(=O)N2CCc3ccccc3C2C1 (stereo not shown) [PZQ, praziquantel, reference compound]", "> 200 µM"],
  ["CCCCCCCCCOc1ccc(C2CC(c3ccccc3)=NN2C(N)=O)cc1 (stereo not shown)", "> 200 µM"],
  ["NC(=O)N1N=C(c2ccc(F)cc2)CC1c1ccc(Cl)cc1 (stereo not shown)", "> 200 µM"],
  ["CCCCCCCCCCOc1ccc(C2CC(c3ccc(F)cc3)=NN2C(N)=O)cc1 (stereo not shown)", "> 200 µM"]
]}

====

Tested on: SH-SY5Y cells
MEASUREMENT_PROTOCOL: Cytotoxicity assay (MTT), SH-SY5Y cells
Format: cell-based, human
MEASUREMENT_SETUP: CC50 (SH-SY5Y) divided by EC50 (S. mansoni)

{"columns": ["MOLECULE", "Human cells SI (selectivity index)"],
 "data": [
  ["CN(C)c1ccc(C2CC(c3ccc(F)cc3)=NN2C(N)=O)cc1 (stereo not drawn) [Compound 21]", "> 10.1"],
  ["CCCCCCOc1ccc(C2CC(c3ccccc3)=NN2C(N)=S)cc1 (stereo not drawn) [Compound 23]", "> 7.1"],
  ["CCCCCCCCCCOc1ccc(C2CC(c3ccc(F)cc3)=NN2C(N)=O)cc1 (stereo not drawn) [Compound 18]", "> 13.7"],
  ["NC(=O)N1N=C(c2ccc(F)cc2)CC1c1ccc(Cl)cc1 (stereo not drawn) [Compound 22]", "> 32.2"],
  ["CCCCCCCCCOc1ccc(C2CC(c3ccccc3)=NN2C(N)=O)cc1 (stereo not drawn) [Compound 16]", "> 14.5"],
  ["Cc1ccc(C2CC(c3ccc(F)cc3)=NN2C(N)=O)cc1 (stereo not drawn) [Compound 19]", "> 11.5"]
]}
